target: recombinant human D2(short) dopamine receptor (Homo sapiens, UniProt P14416); test: Dopamine D2S receptor binding assay ([3H]spiperone, CHO cell membranes); details: human D2S receptors in CHO cells, 0.2 nM [3H]spiperone, mean ± SEM; read-out: Affinity Ki (D2)
Sequence (P14416 1-414 isoform P14416-2): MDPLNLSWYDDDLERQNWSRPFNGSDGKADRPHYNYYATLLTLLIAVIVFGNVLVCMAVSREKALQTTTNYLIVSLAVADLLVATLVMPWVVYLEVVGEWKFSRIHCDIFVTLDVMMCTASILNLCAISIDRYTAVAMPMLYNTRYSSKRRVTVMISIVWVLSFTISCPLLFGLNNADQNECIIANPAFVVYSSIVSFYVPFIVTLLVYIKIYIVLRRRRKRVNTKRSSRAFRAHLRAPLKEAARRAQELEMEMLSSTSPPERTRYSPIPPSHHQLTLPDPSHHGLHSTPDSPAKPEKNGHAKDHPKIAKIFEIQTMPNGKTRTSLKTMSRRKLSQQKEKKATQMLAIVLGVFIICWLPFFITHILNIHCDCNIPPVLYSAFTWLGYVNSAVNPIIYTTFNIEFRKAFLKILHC
I'd be grateful if you could share measured Ki for these entries.
Mention the unit after the number when you answer.

Need Ki of CCCN(CCCCNC(=O)c1ccc2ncsc2c1)C1CCc2ncsc2C1 (stereo not shown) [Compound 15] , thanks. 0.347 µM

Also check CCCN(CCCCNC(=O)C1CCc2ccccc2C1)C1CCc2ncsc2C1 (stereo not shown) [Compound 23] 2.17 µM

Also check CCCN(CCCCNC(=O)N1CCc2cc(OC)c(OC)cc2C1)C1CCc2ncsc2C1 (stereo not shown) [Compound 25] 7.61 µM

Also check CCN(CCN(CC)C1CCc2ncsc2C1)C1CCc2ncsc2C1 (stereo not shown) [Compound 33] 0.468 µM

---

I'd be grateful if you could share measured pKi for these entries.
Target: recombinant human D2(short) dopamine receptor (Homo sapiens, UniProt P14416)
Assay: Dopamine D2S receptor binding assay ([3H]spiperone, CHO cell membranes)
Conditions: human D2S receptors in CHO cells, 0.2 nM [3H]spiperone, mean ± SEM; read-out: Affinity Ki (D2)
Method: Compounds synthesized in Examples A, B, C and D were assayed to test their affinity for dopamine D3 and D2 receptors. METHODS: Dopamine D2S and D3 Receptor Binding Assays […]
Hey, just a heads up that pKi is the negative log base 10 of the concentration in molar.

Need pKi of CCCN(CCCCNC(=O)N1CC=C(c2ccccc2)CC1)C1CCc2ncsc2C1 (stereo not drawn) , thanks. 5.31

Also check CCCN(CCCCNC(=O)NC1CCCCC1)C1CCc2ncsc2C1 (stereo not drawn) 5.31

Also check CCCN(CCN1CCN(c2ccccc2OC)CC1)C1CCc2ncsc2C1 (stereo not drawn) 6.88

---

I'd be grateful if you could share measured Ki for these entries.
biological target: recombinant human D2(short) dopamine receptor (Homo sapiens, UniProt P14416); test: Dopamine D2S receptor binding assay ([3H]spiperone, CHO cell membranes); conditions: human D2S receptors in CHO cells, 0.2 nM [3H]spiperone, mean ± SEM; read-out: Affinity Ki (D2)
The figure you give is taken to be in nM; do not add the unit.

Need Ki of CCN(CCCN1CCN(c2ccccc2OC)CC1)C1CCc2ncsc2C1 (centres unmarked) [Compound 29] , thanks. 140

Also check CCCN(CCCCNC(=O)C1CCCCC1)C1CCc2ncsc2C1 (centres unmarked) [Compound 20] 1530

Also check CCCN(CCN1CCN(c2cccc(Cl)c2Cl)CC1)C1CCc2ncsc2C1 (centres unmarked) [Compound 35] 61.3

Also check CCCN(CCCCN1CCN(c2cccc(Cl)c2Cl)CC1)C1CCc2ncsc2C1 (centres unmarked) [Compound 37] 79.4

Also check CCCN(CCCCC(=O)NC12CC3CC(CC(C3)C1)C2)C1CCc2ncsc2C1 (centres unmarked) [Compound 68] 457

Also check CCN(CCN1CCN(c2ccccc2OC)CC1)C1CCc2ncsc2C1 (centres unmarked) [Compound 28] 148

Also check CCN(CCCCNC(=O)c1ccc2ncsc2c1)C1CCc2ncsc2C1 (centres unmarked) [Compound 14] 2100

Also check CCCN(Cc1ccc(C(=O)N2CCN(c3ccccc3)CC2)cc1)C1CCc2ncsc2C1 (centres unmarked) [Compound 43] 1440

Also check CN(CCCCNC(=O)c1cc2ccccc2s1)C1CCc2ncsc2C1 (centres unmarked) [Compound 11] 3390

Also check CCCN(CCCCC(=O)NC1Cc2ccccc2C1)C1CCc2ncsc2C1 (centres unmarked) [Compound 67] 1390

Also check CCCN(CCN1CCN(C(=O)c2ccccc2)CC1)C1CCc2ncsc2C1 (centres unmarked) [Compound 38] 5270

Also check C#CCN(CCCCNC(=O)c1ccc2ccccc2c1)C1CCc2ncsc2C1 (centres unmarked) [Compound 7] 9080

Also check CCCN(CCCCNC(=O)C=Cc1ccccc1)C1CCc2ncsc2C1 (centres unmarked) [Compound 16] 4010

Also check CCCN(CCOc1ccccc1)C1CCc2ncsc2C1 (centres unmarked) [Compound 69] 4670

---

I'd be grateful if you could share measured pKi for these entries.
molecular target: human dopamine D3 receptors (Homo sapiens, UniProt P35462); construct: expressed in transfected cells; experiment: Dopamine D3 receptor binding assay ([3H]spiperone, CHO cell membranes); conditions: human D3 receptors in CHO cells, 0.2 nM [3H]spiperone, mean ± SEM; read-out: Affinity Ki (D3)
Sequence (P35462 whole entry): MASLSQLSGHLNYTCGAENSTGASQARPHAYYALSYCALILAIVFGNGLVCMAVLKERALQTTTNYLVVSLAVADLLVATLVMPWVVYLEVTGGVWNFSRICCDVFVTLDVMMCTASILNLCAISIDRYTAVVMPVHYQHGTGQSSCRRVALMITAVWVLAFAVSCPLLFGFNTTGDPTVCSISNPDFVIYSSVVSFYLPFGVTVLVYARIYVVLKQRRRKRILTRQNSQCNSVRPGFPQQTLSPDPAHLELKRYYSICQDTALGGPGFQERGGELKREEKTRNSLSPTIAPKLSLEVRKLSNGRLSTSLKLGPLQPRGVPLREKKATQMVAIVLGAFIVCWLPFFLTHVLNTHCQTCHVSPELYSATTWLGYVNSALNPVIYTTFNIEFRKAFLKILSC
Hey, just a heads up that pKi is the negative log base 10 of the concentration in molar.

Need pKi of CCCN(CCCCC(=O)NC1Cc2ccccc2C1)C1CCc2ncsc2C1 (stereo not shown) , thanks. 9.05

Also check CCCN(CCCCN1CCN(c2cccc(Cl)c2Cl)CC1)C1CCc2ncsc2C1 (stereo not shown) 8.12

Also check CCCN(CCCCNC(=O)N1CCCCC1)C1CCc2ncsc2C1 (stereo not shown) 8.19

Also check CCCN(CCCCNC(=O)C=Cc1ccc(Cl)cc1Cl)C1CCc2ncsc2C1 (stereo not shown) 8.62

Also check C#CCN(CCCCNC(=O)c1ccc2ccccc2c1)C1CCc2ncsc2C1 (stereo not shown) 8.11

Also check CN(CCCCNC(=O)c1ccc2ccccc2c1)C1CCc2ncsc2C1 (stereo not shown) 7.59

Also check CCCN(CCCCNC(=O)NC1CCCCC1)C1CCc2ncsc2C1 (stereo not shown) 8.53

Also check O=C(NCCCCNC1CCc2ncsc2C1)c1ccc2ccccc2c1 (stereo not shown) 6.83

Also check CCCN(CCCCNC(=O)NC1Cc2ccccc2C1)C1CCc2ncsc2C1 (stereo not shown) 8.47

Also check CCCN(CCN1CCN(c2cccc(Cl)c2Cl)CC1)C1CCc2ncsc2C1 (stereo not shown) 7.66

Also check CCCN(CCCCNC(=O)C1Cc2ccccc2C1)C1CCc2ncsc2C1 (stereo not shown) 8.82

Also check CN(CCCCNC(=O)c1cc2ccccc2s1)C1CCc2ncsc2C1 (stereo not shown) 7.28

Also check CCCN(CCCCNC(=O)C1CCc2ccccc2C1)C1CCc2ncsc2C1 (stereo not shown) 8.76

Also check CC#CCN(CCCCNC(=O)c1ccc2ccccc2c1)C1CCc2ncsc2C1 (stereo not shown) 6.97

Also check CCCN(Cc1ccc(C(=O)N2CCN(c3ccccc3)CC2)cc1)C1CCc2ncsc2C1 (stereo not shown) 7.53

Also check CCN(CCCCN1CCN(c2ccccc2OC)CC1)C1CCc2ncsc2C1 (stereo not shown) 7.26

Also check CCCN(CCCN1CCN(c2cccc(Cl)c2Cl)CC1)C1CCc2ncsc2C1 (stereo not shown) 7.46

Also check CCCN(CCCCNC(=O)c1cc2ccccc2s1)C1CCc2ncsc2C1 (stereo not shown) 7.80

Also check CCCN(CCCCC(=O)Nc1ccc2ccccc2c1)C1CCc2ncsc2C1 (stereo not shown) 9.26

From: patent US8389555B2
